Quick reference for abundance fitness among some variants
B1: Homeobox protein cut-like 1, residues 941 to 1008; numbered along this chain, P39880 (parent)
chain: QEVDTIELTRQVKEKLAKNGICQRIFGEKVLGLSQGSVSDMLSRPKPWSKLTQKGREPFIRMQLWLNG

Variants of: B1
protocol description: abundance fitness (aPCA) (normalised: wild type 0, dead -1); higher = more abundant; growth selection in yeast, the domain comes from the species named
cond: Homo sapiens
Lab note: record just the number, no unit beside it.

- sequence data: "QEVFTIELTRQVKEKLAKNGICQRIFGEKVLGLSQGSVSDMLSRPKPWSKLTQKGREPFIRMQLWLNG [D4F]"
  abundance fitness: -0.35
- sequence data: "QEVDTIELTRQVKEKLAKNGICQRIFYEKVLGLSQGSVSDMLSRPKPWSKLTQKGREPFIRMQLWLNG [G27Y]"
  abundance fitness: -0.144
- sequence data: "QEVDTIELTRQVKEKLAKNGICQRAFGEKVLGLSQGSVSDMLSRPKPWSKLTQKGREPFIRMQLWLNG [I25A]"
  abundance fitness: -0.002
- sequence data: "QELDTIELTRQVKEKLAKNGICQRIFGEKVLGLSQGSVSDMLSRPKPWSKLTQKGREPFIRMQLWLNG [V3L]"
  abundance fitness: 0.008
- sequence data: "QEVDTIELTRQVKEKLAKNGICQRIFGEKVLGLSQPSVSDMLSRPKPWSKLTQKGREPFIRMQLWLNG [G36P]"
  abundance fitness: -0.055

In: Recorded abundance fitness for QEVDTIELTRQVYEKLAKNGICQRIFGEKVLGLSQGSVSDMLSRPKPWSKLTQKGREPFIRMQLWLNG [K13Y] , please?
Out: -0.475

In: Field request: abundance fitness | item: QEVDTIELTRQVKEKLAKNGIQQRIFGEKVLGLSQGSVSDMLSRPKPWSKLTQKGREPFIRMQLWLNG [C22Q]
Out: -0.256

In: # get_value(readout='abundance fitness', item= QEVDTIELTRQVKEKLAKNGICGRIFGEKVLGLSQGSVSDMLSRPKPWSKLTQKGREPFIRMQLWLNG [Q23G] )
Out: -0.28

In: So what's the measured abundance fitness for this one? QEVDTIELTRQVKEKFAKNGICQRIFGEKVLGLSQGSVSDMLSRPKPWSKLTQKGREPFIRMQLWLNG [L16F]
Out: -0.257
